- Test system: sugar beet
- protocol_notes: Test B pre/postemergence sugar beet
- Assay type: in vivo, Beta vulgaris
- protocol_conditions: Preemergence, Rate 500 g/ha; scale 0 to 10, 0 is no effect, 10 is complete control
quantity_measured: Sugarbeets plant response rating

[[record]]
molecule = "COC(C)n1c(=O)on(C(=O)N(c2ccccc2)C(C)C)c1=O (centres unmarked) [Compound 441]"
reported_result = 0

[[record]]
molecule = "CC(C)N(C(=O)n1oc(=O)n(CC#N)c1=O)c1ccccc1 [Compound 434]"
reported_result = 0

[[record]]
molecule = "C=CC(CC)n1c(=O)on(C(=O)N(c2ccccc2)C(C)C)c1=O (centres unmarked) [Compound 455]"
reported_result = 6

[[record]]
molecule = "CC(C)N(C(=O)n1oc(=O)n(C[Si](C)(C)c2ccccc2)c1=O)c1ccc(Cl)cc1 [Compound 424]"
reported_result = 0

[[record]]
molecule = "CCOC(=O)C=C(Cn1c(=O)on(C(=O)N(c2ccc(F)cc2)C(C)C)c1=O)OCC [Compound 396]"
reported_result = 2


###

- Test system: velvetleaf
- protocol_notes: Test B pre/postemergence velvetleaf
- Format: in vivo, Abutilon theophrasti
- protocol_conditions: Preemergence, Rate 500 g/ha; scale of 0 to 10 where 0 is no effect and 10 is complete control
// reported Plant response rating, Velvetleaf for each item listed
quantity_measured: Plant response rating, Velvetleaf

[[record]]
compound = "Cc1ccccc1N(C(=O)n1oc(=O)n(-c2ccccc2C)c1=O)C(C)C"
target_entity = "velvetleaf"
quantity_measured = "Plant response rating, Velvetleaf"
reported_result = 0

[[record]]
compound = "CC(C)N(C(=O)n1oc(=O)n(CC(Cl)Cl)c1=O)c1ccc(F)cc1F"
target_entity = "velvetleaf"
quantity_measured = "Plant response rating, Velvetleaf"
reported_result = 8

[[record]]
compound = "C#CC(C=C(C)C)n1c(=O)on(C(=O)N(c2ccccc2)C(C)C)c1=O (centres unmarked)"
target_entity = "velvetleaf"
quantity_measured = "Plant response rating, Velvetleaf"
reported_result = 1

[[record]]
compound = "CC(C)N(C(=O)n1oc(=O)n(-c2cccnc2)c1=O)c1ccc(F)cc1"
target_entity = "velvetleaf"
quantity_measured = "Plant response rating, Velvetleaf"
reported_result = 0

[[record]]
compound = "Cc1ccccc1-n1c(=O)on(C(=O)N(c2ccc3c(c2)CCC3)C(C)C)c1=O"
target_entity = "velvetleaf"
quantity_measured = "Plant response rating, Velvetleaf"
reported_result = 0

[[record]]
compound = "CC(C)N(C(=O)n1oc(=O)n(CC(=O)C(C)(C)C)c1=O)c1ccc(F)cc1"
target_entity = "velvetleaf"
quantity_measured = "Plant response rating, Velvetleaf"
reported_result = 0

[[record]]
compound = "CCOC(=O)C=CCn1c(=O)on(C(=O)N(c2ccc(F)cc2)C(C)C)c1=O"
target_entity = "velvetleaf"
quantity_measured = "Plant response rating, Velvetleaf"
reported_result = 0

[[record]]
compound = "COC(=O)CCCn1c(=O)on(C(=O)N(c2ccc(F)cc2)C(C)C)c1=O"
target_entity = "velvetleaf"
quantity_measured = "Plant response rating, Velvetleaf"
reported_result = 4

[[record]]
compound = "C=C(Cn1c(=O)on(C(=O)N(c2ccccc2)C(C)C)c1=O)c1ccc(F)cc1"
target_entity = "velvetleaf"
quantity_measured = "Plant response rating, Velvetleaf"
reported_result = 0

[[record]]
compound = "CCCCn1c(=O)on(C(=O)N(c2ccc(F)cc2F)C(C)C)c1=O"
target_entity = "velvetleaf"
quantity_measured = "Plant response rating, Velvetleaf"
reported_result = 7

[[record]]
compound = "CC(C)N(C(=O)n1oc(=O)n(-c2cccnc2)c1=O)c1ccccc1"
target_entity = "velvetleaf"
quantity_measured = "Plant response rating, Velvetleaf"
reported_result = 0

